assay: RP-HPLC retention on XTerra RP18, methanol/buffer; extrapolated retention factor log kw and slope S; type: physicochemical; settings: pH 7.4; intercept, extrapolated to 100 % buffer; methanol/buffer, 25 °C
Structures can show the parent of a compound that is named as a salt.
recorded-endpoint: log kw
Quick one: just the number, no unit, thanks!

Fill in: log kw of Clc1cccc(Cl)c1N=C1NCCN1 [Clonidine, Clonidine hydrochloride] is ___ 0.98

Fill in: log kw of C[C@@H]1CCC[C@H](C)N1NC(=O)c1ccc(Cl)c(S(N)(=O)=O)c1 [Clopamide, clopamide] is ___ 1.99

Fill in: log kw of CNCCCC12CCC(c3ccccc31)c1ccccc12 [Maprotiline, maprotiline hydrochloride] is ___ 2.58

# input for lookup
Fill in: log kw of N=C(N)NC(=O)Cc1c(Cl)cccc1Cl [Guanfacine, guanfacine hydrochloride] is ___ 1.92

* * *

# µeff4.4 annotations
test: Capillary electrophoresis, effective electrophoretic mobility (acetone as EOF marker); format: physicochemical; settings: pH 4.4; I = 25 mmol/L, 11 kV, 25 °C, three replicates
Counter-ions that a name gives are not always drawn.

Fill in: µeff4.4 of Clc1ccc2nsnc2c1NC1=NCCN1 [Tizanidine, tizanidine hydrochloride] is ___ 24.770 ± 0.035 10^-5 cm^2 V^-1 s^-1

Fill in: µeff4.4 of CNC[C@H](O)c1cccc(O)c1 [Phenilephrine, Phenilephrine hydrochloride] is ___ 25.780 ± 0.006 10^-5 cm^2 V^-1 s^-1

Fill in: µeff4.4 of COc1ccccc1OCCNCC(O)COc1cccc2[nH]c3ccccc3c12 (centres unmarked) is ___ 18.061 ± 0.029 10^-5 cm^2 V^-1 s^-1

Others:
Fill in: µeff4.4 of c1ccc2c(CC3=NCCN3)cccc2c1 [Naphazoline, naphazoline hydrochloride] is ___ 25.941 ± 0.038 10^-5 cm^2 V^-1 s^-1

Fill in: µeff4.4 of CCC1(C2=NCCN2)Cc2ccccc2O1 (centres unmarked) [Efaroxan, efaroxan hydrochloride] is ___ 24.099 ± 0.035 10^-5 cm^2 V^-1 s^-1

Fill in: µeff4.4 of c1ccc2c(c1)OCC(C1=NCCN1)O2 (centres unmarked) [Idazoxan, idazoxan hydrochloride] is ___ 26.969 ± 0.032 10^-5 cm^2 V^-1 s^-1

Fill in: µeff4.4 of COc1ccc2c(c1)[nH]c1c(C)nccc12 [Harmine, harmine hydrochloride] is ___ 26.410 ± 0.068 10^-5 cm^2 V^-1 s^-1

Fill in: µeff4.4 of Clc1cccc(Cl)c1N=C1NCCN1 [Clonidine, Clonidine hydrochloride] is ___ 25.952 ± 0.084 10^-5 cm^2 V^-1 s^-1

* * *

experiment: RP-HPLC retention on XTerra RP18, methanol/buffer; extrapolated retention factor log kw and slope S; assay type: physicochemical; details: pH 7.4; intercept, extrapolated to 100 % buffer; methanol/buffer, 25 °C
Where a name gives a salt, the structure may show the parent alone.
# log kw annotations
Quick one: just the number, no unit, thanks!

Fill in: log kw of Clc1ccc2nsnc2c1NC1=NCCN1 [Tizanidine, tizanidine hydrochloride] is ___ 1.12

Fill in: log kw of CN[C@@H](C)[C@H](O)c1ccccc1 [Ephedrine, ephedrine hydrochloride] is ___ 0.57

Fill in: log kw of CC1Cc2ccccc2N1NC(=O)c1ccc(Cl)c(S(N)(=O)=O)c1 (centres unmarked) [Indapamide, indapamide] is ___ 2.55

Fill in: log kw of CNC[C@H](O)c1cccc(O)c1 [Phenilephrine, Phenilephrine hydrochloride] is ___ 0.04

Fill in: log kw of COc1ccccc1OCCNCC(O)COc1cccc2[nH]c3ccccc3c12 (centres unmarked) [Carvedilol, carvedilol] is ___ 4.15

Fill in: log kw of N=C(N)NC(=O)c1nc(Cl)c(N)nc1N [Amiloride, Amiloride hydrochloride] is ___ 1.05

Fill in: log kw of Cc1cc(C(C)(C)C)cc(C)c1CC1=NCCN1 [Xylometazoline, xylometazoline hydrochloride] is ___ 2.59

Fill in: log kw of Cc1nccc2c1[nH]c1ccccc12 [Harman, harmane] is ___ 2.76

Fill in: log kw of CN1CCN2c3ccccc3Cc3ccccc3C2C1 (centres unmarked) [Mianserin, mianserin hydrochloride] is ___ 3.91

Fill in: log kw of CN1CCN(C2=Nc3cc(Cl)ccc3Nc3ccccc32)CC1 [Clozapine, clozapine] is ___ 3.85

Others:
Fill in: log kw of CCOc1ccccc1OCCN[C@H](C)Cc1ccc(OC)c(S(N)(=O)=O)c1 [Tamsulosin, tamsulosin hydrochloride] is ___ 2.75

Fill in: log kw of Nc1nc(N)c2nc(-c3ccccc3)c(N)nc2n1 [Triamterene, triamterene] is ___ 1.92

Fill in: log kw of c1ccc2c(CC3=NCCN3)cccc2c1 [Naphazoline, naphazoline hydrochloride] is ___ 1.52

Fill in: log kw of CN[C@@H](C)[C@@H](O)c1ccccc1 [Pseudoephedrine, pseudoephedrine hydrochloride] is ___ 0.61

Fill in: log kw of CCC1(C2=NCCN2)Cc2ccccc2O1 (centres unmarked) [Efaroxan, efaroxan hydrochloride] is ___ 1.33

Fill in: log kw of C1COC(NC(C2CC2)C2CC2)=N1 [Rilmenidine, rilmenidine hemifumarate] is ___ 0.90

Fill in: log kw of c1ccc2c(c1)OCC(C1=NCCN1)O2 (centres unmarked) [Idazoxan, idazoxan hydrochloride] is ___ 0.85
